- testDetails: Stability of cannabinoid and Vitamin E components of Beverage 1 (AB White) stored at 8° C. and 21-25° C., LCMSMS over 570 days
- Assay type: physicochemical
- experimentalContext: beverage stored at 8° C., day 12
measurementLabel: Stability in AB White, 8° C. (content by LCMSMS) (µg/mL)
Provide the reading as a plain figure in µg/mL.

// solved cases for Stability in AB White, 8° C. (content by LCMSMS) follow
CCCCCc1cc(O)c2c(c1)OC(C)(C)[C@@H]1CCC(C)=C[C@@H]21 [D9 THC, delta-9-tetrahydrocannabinol, reference compound] :: 11.88
CCCCCc1cc(O)c2c(c1)OC1(C)CCC3C1C2C3(C)C (stereo not drawn) :: 0.553

Next item in the queue.
input: Form field: reported Stability in AB White, 8° C. (content by LCMSMS) of `CCCCCc1cc(O)c(C/C=C(\C)CCC=C(C)C)c(O)c1`
output: 4.87
